assayed target: human TRPV1 (Homo sapiens (Human))
Sequence (Q8NER1 whole entry): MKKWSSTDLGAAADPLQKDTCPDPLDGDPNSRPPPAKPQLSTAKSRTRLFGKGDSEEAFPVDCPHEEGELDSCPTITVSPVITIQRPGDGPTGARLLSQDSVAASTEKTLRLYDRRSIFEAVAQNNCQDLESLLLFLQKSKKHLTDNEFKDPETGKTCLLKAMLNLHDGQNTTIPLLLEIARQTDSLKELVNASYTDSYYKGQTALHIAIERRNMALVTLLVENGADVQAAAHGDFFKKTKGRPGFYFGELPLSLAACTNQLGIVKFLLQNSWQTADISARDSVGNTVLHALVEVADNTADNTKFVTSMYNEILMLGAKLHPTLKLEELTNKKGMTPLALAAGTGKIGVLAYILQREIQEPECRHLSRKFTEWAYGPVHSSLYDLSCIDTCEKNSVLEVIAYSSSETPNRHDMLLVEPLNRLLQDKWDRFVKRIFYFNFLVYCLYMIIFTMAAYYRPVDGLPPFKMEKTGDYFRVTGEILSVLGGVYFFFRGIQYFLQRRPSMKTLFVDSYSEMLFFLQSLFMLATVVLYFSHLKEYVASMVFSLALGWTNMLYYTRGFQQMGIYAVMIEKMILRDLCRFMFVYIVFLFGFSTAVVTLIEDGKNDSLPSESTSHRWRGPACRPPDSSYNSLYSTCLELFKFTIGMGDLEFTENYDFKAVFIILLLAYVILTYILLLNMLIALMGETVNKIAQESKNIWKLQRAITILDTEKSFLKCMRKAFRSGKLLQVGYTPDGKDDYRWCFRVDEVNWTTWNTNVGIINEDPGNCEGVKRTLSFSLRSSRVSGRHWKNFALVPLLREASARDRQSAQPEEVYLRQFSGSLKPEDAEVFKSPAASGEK
protocol summary: Acid Activation Assay (pH 5.0, intracellular Ca2+, FLIPR)
Type: cell-based
measurement setup: percentage of the maximal pH 5.0-induced response remaining; recombinant HEK293 hTRPV1 cells; maximum concentration tested 37.5 μM
Method: Dulbecco's modified Eagle's medium (DMEM) with 4.5 m g/mL D-glucose, fetal bovine serum, L-glutamine, and 2-morpholinoethanesulfonic acid (MES) were purchased from Sigma-Aldrich Co. (St. Louis, Mo.). […] The functional activity of compounds at the TRPV1 receptor was determined by measurement of intracellular Ca^2+ levels ([Ca^2+]i) using the Fluorescence Imaging Plate Reader (FLIPR)TETRA®. […] The intensity of the fluorescence was captured and digitally transferred to an interfaced PC. […]
result type: human TRPV1 H^+ (max % remain) (%)

INSERT INTO measurements (compound, result_type, measured_value) VALUES
  ('CN1C(=O)NCc2c(NC(=O)N[C@@H]3CC(C)(C)Oc4cc(C(F)(F)F)ccc43)cccc21 [Example 150]', 'human TRPV1 H^+ (max % remain)', 20),
  ('C[C@@]1(C(F)(F)F)C[C@@H](NC(=O)Nc2ccc3c(c2)NC(=O)CO3)c2ccccc2O1 [Example 125]', 'human TRPV1 H^+ (max % remain)', 96),
  ('CN1Cc2ccc(NC(=O)N[C@@H]3C[C@](C)(C(F)F)Oc4ccccc43)cc2NC1=O [Example 207]', 'human TRPV1 H^+ (max % remain)', 57),
  ('CN1Cc2ccc(NC(=O)N[C@@H]3CC(CF)(CF)Oc4c(F)cccc43)cc2NC1=O [Example 198]', 'human TRPV1 H^+ (max % remain)', 55),
  ('CCC1(CC)C[C@@H](NC(=O)Nc2ccc3c(c2)N(C)C(=O)CC3)c2cc(F)ccc2O1 [Example 270]', 'human TRPV1 H^+ (max % remain)', 86),
  ('CN1C(=O)CCc2ccc(NC(=O)N[C@@H]3C[C@](C)(CF)Oc4cc(C(F)(F)F)ccc43)cc21 [Example 290]', 'human TRPV1 H^+ (max % remain)', 68),
  ('CN1C(=O)NCc2c(NC(=O)N[C@@H]3CC(C)(C)Oc4cc(Cl)ccc43)cccc21 [Example 6]', 'human TRPV1 H^+ (max % remain)', 30),
  ('CN1Cc2ccc(NC(=O)N[C@@H]3C[C@@](C)(C(F)F)Oc4ccccc43)cc2NC1=O [Example 171]', 'human TRPV1 H^+ (max % remain)', 63),
  ('CN1C(=O)NCc2c(NC(=O)N[C@@H]3CC(C)(C(F)F)Oc4cc(Cl)ccc43)cccc21 (stereo partly shown) [Example 136]', 'human TRPV1 H^+ (max % remain)', 26),
  ('CN1C(=O)CCc2ccc(NC(=O)N[C@@H]3CC(CF)(CF)Oc4ccc(F)cc43)cc21 [Example 267]', 'human TRPV1 H^+ (max % remain)', 63),
  ('COCCN(C)C1Cc2ccc(NC(=O)N[C@@H]3CC(CF)(CF)Oc4cc(Cl)ccc43)cc2NC1=O (stereo partly shown) [Example 306]', 'human TRPV1 H^+ (max % remain)', 31),
  ('Cn1c(=O)ccc2c(NC(=O)N[C@@H]3CC(CF)(CF)Oc4cc(C(F)(F)F)ccc43)cccc21 [Example 92]', 'human TRPV1 H^+ (max % remain)', 43),
  ('Cn1c(=O)ccc2c(NC(=O)N[C@@H]3CCc4cc(F)ccc43)cccc21 [Example 83]', 'human TRPV1 H^+ (max % remain)', 36),
  ('CC1(C)C[C@@H](NC(=O)Nc2ccc3c(c2)NC(=O)CC3)c2cccc(F)c2O1 [Example 219]', 'human TRPV1 H^+ (max % remain)', 29),
  ('CCC1(CC)C[C@@H](NC(=O)Nc2cccc3c2ccc(=O)n3C)c2ccc(C(F)(F)F)cc2O1 [Example 69]', 'human TRPV1 H^+ (max % remain)', 13),
  ('CN1C(=O)NCc2c(NC(=O)N[C@@H]3CC(C)(C)Oc4cc(OC(F)(F)F)ccc43)cccc21 [Example 137]', 'human TRPV1 H^+ (max % remain)', 17),
  ('O=C1CCc2ccc(NC(=O)N[C@@H]3CC(CF)(CF)Oc4cc(F)ccc43)cc2N1 [Example 250]', 'human TRPV1 H^+ (max % remain)', 23),
  ('CN1C(=O)CCc2ccc(NC(=O)N[C@@H]3CCOc4ccccc43)cc21 [Example 258]', 'human TRPV1 H^+ (max % remain)', 72),
  ('CCC1(CC)C[C@@H](NC(=O)Nc2ccc3c(c2)NC(=O)N(C)C3)c2ccc(Cl)cc2O1 [Example 181]', 'human TRPV1 H^+ (max % remain)', 28),
  ('Cn1c(=O)ccc2c(NC(=O)N[C@@H]3CCOc4cc(OC(F)(F)F)ccc43)cccc21 [Example 87]', 'human TRPV1 H^+ (max % remain)', 57),
  ('Cn1c(=O)ccc2c(NC(=O)N[C@@H]3CC(C)(C)Oc4c(F)cccc43)cccc21 [Example 94]', 'human TRPV1 H^+ (max % remain)', 53),
  ('C[C@@]1(CF)C[C@@H](NC(=O)Nc2ccc3c(c2)NC(=O)CC3)c2ccc(Cl)cc2O1 [Example 246]', 'human TRPV1 H^+ (max % remain)', 33),
  ('Cn1c(=O)ccc2c(NC(=O)N[C@@H]3CC(C)(C)Oc4c3cccc4C(F)(F)F)cccc21 [Example 93]', 'human TRPV1 H^+ (max % remain)', 47),
  ('CCCC1(CCC)C[C@@H](NC(=O)Nc2ccc3c(c2)NC(=O)N(CCO)C3)c2cccc(F)c2O1 [Example 311]', 'human TRPV1 H^+ (max % remain)', 14),
  ('CN1C(=O)CCc2ccc(NC(=O)N[C@@H]3CC(C)(C)Oc4c3ccc(F)c4Cl)cc21 [Example 275]', 'human TRPV1 H^+ (max % remain)', 83),
  ('O=C1CCc2ccc(NC(=O)N[C@@H]3CCOc4cc(C(F)(F)F)ccc43)cc2N1 [Example 239]', 'human TRPV1 H^+ (max % remain)', 26),
  ('CN1Cc2ccc(NC(=O)N[C@@H]3CC(CF)(CF)Oc4ccc(F)cc43)cc2NC1=O [Example 186]', 'human TRPV1 H^+ (max % remain)', 58),
  ('CCC1(CC)C[C@@H](NC(=O)Nc2ccc3c(c2)NC(=O)CC3)c2cc(F)ccc2O1 [Example 229]', 'human TRPV1 H^+ (max % remain)', 36),
  ('CC1(C)C[C@@H](NC(=O)Nc2ccc3c(c2)NC(=O)CO3)c2ccc(F)cc2O1 [Example 38]', 'human TRPV1 H^+ (max % remain)', 92),
  ('O=C1COc2ccc(NC(=O)N[C@@H]3CCOc4cc(C(F)(F)F)ccc43)cc2N1 [Example 121]', 'human TRPV1 H^+ (max % remain)', 107),
  ('CC1(C)C[C@H](NC(=O)Nc2ccc3c(c2)NC(=O)N(CCO)C3)c2cc(F)ccc2O1 [Example 57]', 'human TRPV1 H^+ (max % remain)', 43);
